Known Kd of a selection of binders
SYSTEM NAME: feline FcRn (FCN-F82W3, Acrobiosystems) (feline)
MEASUREMENT DESCRIPTION: SPR Carterra, IgG coupled, pH 6.0
Could you give me the number in nM? Just the number is fine.

BINDER: anti-NGF feline IgG1a, Fc variant S428L, E380D, S434R (antibody, part only; not given: Anti-NGF variable domains, not shown: another chain or arm of the molecule; small tags and cut ends) Fc: PPEMLGGPSIFIFPPKPKDTLSISRTPEVTCLVVDLGPDDSDVQITWFVDNTQVYTAKTSPREEQFNSTYRVVSVLPILHQDWLKGKEFKCKVNSKSLPSPIERTISKAKGQPHEPQVYVLPPAQEELSRNKVSVTCLIKSFHPPDIAVDWEITGQPEPENNYRTTPPQLDSDGTYFVYSKLSVDRSHWQRGNTYTCSVLHEALHRHHTQKSLTQSPGK
Kd [nM]: 8

Quick one: Kd for anti-NGF feline IgG1a, Fc variant E293H (antibody, part only; not given: anti-NGF variable domains, light chain, not shown: another chain or arm of the molecule; small tags and cut ends) Fc: PPEMLGGPSIFIFPPKPKDTLSISRTPEVTCLVVDLGPDDSDVQITWFVDNTQVYTAKTSPRHEQFNSTYRVVSVLPILHQDWLKGKEFKCKVNSKSLPSPIERTISKAKGQPHEPQVYVLPPAQEELSRNKVSVTCLIKSFHPPDIAVEWEITGQPEPENNYRTTPPQLDSDGTYFVYSKLSVDRSHWQRGNTYTCSVSHEALHSHHTQKSLTQSPGK ? 146

// data source = patent US20250304650A1
